Each entry below carries its recorded growth.
Test system: OVCAR-5 ovarian
Experiment: NCI-60 one-dose screen, 48 h (100 = growth as untreated, 0 = no growth, -100 = all killed)
Conditions: 10 µM unless noted
Compounds without any hit were thinned out: in the full panel of roughly 83,000, 20% have a hit.
Answer with a number only, understood to be in %.

Guide cases for growth, answers given:
• CCOC(=O)/C=C\C(=O)NC(N)=O = 113
• CCN(Cc1ccc(CN(CC)C(=O)C(Cl)(Cl)Cl)cc1)C(=O)C(Cl)(Cl)Cl = 101

query: Quote OVCAR-5 ovarian growth for entry "O=S(=O)(NCCCNc1cc(-c2cn(-c3ccccc3)nc2-c2cccc(O)c2)ccn1)c1cccc(F)c1" .
result: 68.3

query: Quote OVCAR-5 ovarian growth for entry "CCn1cc(C(=O)O)c(=O)c2cc(F)c(N3CCN(S(=O)(=O)c4ccc(Cl)cc4Cl)CC3)cc21" .
result: 7.92

query: Quote OVCAR-5 ovarian growth for entry "O=S=Nc1ccc([N+](=O)[O-])cc1" .
result: 87.2

query: Quote OVCAR-5 ovarian growth for entry "Cc1ccccc1C(=O)c1ccccc1C(=O)O" .
result: 111

----------
System: SK-MEL-5 melanoma
Experiment: NCI-60 one-dose screen, 48 h (100 = growth as untreated, 0 = no growth, -100 = all killed)
Settings: 10 µM unless noted
Experimental: Growth inhibition of the SK-MEL-5 human tumor cell line is measured as a screen for anti-cancer activity. Cells are grown in 96 well plates and exposed to the test compound for 48 hours. Compounds are tested at a single concentration, which is 10^-5 M for most compounds. The reported endpoint is percent growth (GI% or GIPRCNT), where numbers from 0 - 100% represent growth inhibition, and numbers from -100% - 0 represent cell death. For example, a value of 40 represents 60% growth inhibition. […]
The panel holds about 83,000 compounds, 20% with a hit somewhere; the sample as a whole holds those more often.
property_name: growth (%)
Answer with a number only, understood to be in %.

Guide cases for growth, answers given:
• COc1ccc(C2SCC(=O)N2NC(=O)c2ccc(NC(=O)c3ccccn3)cc2)cc1OC (centres undefined) = 102
• Clc1ccc(/C=C/c2nc(N3CCOCC3)c3nc(Cl)c(Cl)cc3n2)cc1 = 90.2
• COc1ccc(/C=C\c2cc(OC)c(OC)c(OC)c2)c(NS(=O)(=O)c2ccc(C(C)(C)C)cc2)c1O = -19.2
• CNC(=O)c1cc(Oc2ccc3c(c2)sc2nc(-c4ccc(Cl)cc4)cn23)ccn1 = 87.4

query: Quote SK-MEL-5 melanoma growth for entry "CC(=O)Nc1nc(C(=O)N2N=C(C)/C(=C/c3cccs3)C2=O)cs1" .
result: 109

query: Quote SK-MEL-5 melanoma growth for entry "CC1=CNNc2c3ncnc-3ncn21" .
result: 99.7

query: Quote SK-MEL-5 melanoma growth for entry "COc1cc(NCCCN=C(N)NC(N)=NC(C)C)c2ncccc2c1" .
result: 27

query: Quote SK-MEL-5 melanoma growth for entry O=C(COc1ccccc1)N1N=C(c2ccc(Cl)cc2)CC1c1c[nH]c2ccccc12 (centres undefined) .
result: 85.5

query: Quote SK-MEL-5 melanoma growth for entry "COc1cc(NC(=O)CSc2nc3ccc(C)cc3c(=O)n2-c2ccccc2)cc(OC)c1OC" .
result: 77.8

query: Quote SK-MEL-5 melanoma growth for entry "CCC(=O)Nc1ccccc1C#C/C=C\C#Cc1ccccc1SC" .
result: 23.8

Sourced from PubChem BioAssay (NCI)
